Values compiled from patent US8273777B2.

- system: human glucokinase (GK) (Homo sapiens, UniProt P35557)
- Construct: Full-length human hepatic GK (untagged) was expressed in BL21 STAR (DE3)pLysS cells; made in house; host or cells: E. coli BL21 STAR (DE3)pLysS (Invitrogen)
- Sequence (P35557 1-466 isoform P35557-2): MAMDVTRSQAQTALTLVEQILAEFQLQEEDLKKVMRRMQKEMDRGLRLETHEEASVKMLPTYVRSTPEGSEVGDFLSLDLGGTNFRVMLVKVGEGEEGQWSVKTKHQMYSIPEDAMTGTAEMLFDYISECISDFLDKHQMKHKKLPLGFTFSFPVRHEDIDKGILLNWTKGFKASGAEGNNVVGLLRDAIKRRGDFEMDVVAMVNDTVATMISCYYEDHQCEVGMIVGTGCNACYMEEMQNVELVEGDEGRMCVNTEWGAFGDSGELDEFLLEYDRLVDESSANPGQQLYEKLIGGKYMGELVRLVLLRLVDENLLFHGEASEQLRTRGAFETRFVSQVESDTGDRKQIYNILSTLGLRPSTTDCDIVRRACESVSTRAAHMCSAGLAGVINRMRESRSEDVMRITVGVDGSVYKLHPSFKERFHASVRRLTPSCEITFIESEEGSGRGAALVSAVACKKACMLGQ
- test description: Glucokinase tandem enzymatic assay
- Assay type: biochemical
- details: 12 mM glucose; EC50 = concentration to achieve 50% of full activation
observable: EC50 (nM)

Some compounds with recorded EC50:
| compound | display unit | numeric value |
| --- | --- | --- |
| COC[C@H](C)Oc1cc(NC(=O)c2c[nH]cn2)cc(Oc2ccc(S(C)(=O)=O)cc2)c1 [Example 6] | nM | 191 |
| COC[C@H](C)Oc1cc(NC(=O)c2cc[nH]n2)cc(Oc2ccc(S(C)(=O)=O)cc2)c1 [Example 8] | nM | 513 |
| COC[C@H](C)Oc1cc(NC(=O)c2ncc(C)s2)cc(Oc2ccc(S(C)(=O)=O)cc2)c1 [Example 18] | nM | 67 |

[P] CS(=O)(=O)c1ccc(Oc2cc(NC(=O)c3c[nH]cn3)cc(Oc3ccc(S(C)(=O)=O)cc3)c2)cc1 [Example 31]
[Q] Cc1cnc(C(=O)Nc2cc(Oc3ccc(S(C)(=O)=O)cc3)cc(O[C@@H](C)CO)c2)s1 [Example 22]
Query :: # return whichever of P and Q has the smaller EC50 Indicate which entry you chose by stating its label.
Result :: Q
